# Test system: OVCAR-4 ovarian
# ASSAY_METHOD_TEXT: NCI tumour cell line growth inhibition, 48 h
READOUT_KIND: TGI (µM)
Give bare numbers, in µM.

For each of the molecules below, note its TGI.
1. COc1ccc2nc3ccc(OC)cc3c(SCC3CO3)c2c1 (centres undefined)
2. CC1OC(OC2C(O[C@@H]3C[C@@H]4CC[C@@H]5[C@H](CC[C@]6(C)C7C(C[C@@H]56)O[C@]5(CC[C@@H](C)CO5)[C@H]7C)[C@@]4(C)C[C@H]3O)OC(CO)C(O)C2O)C(O)C(O)C1O (some centres undefined)
3. COc1cccc2c(=O)c3c(sc12)c(NCCN(C)C)nc1ccccc13

*A*
1. 38.1
2. 3.28
3. 3.68

OVCAR-4 ovarian assay, molecule `O=C1C(=C(C(=O)c2ccccc2)C(=O)c2ccccc2)OC(c2ccccc2)=C1C(=O)c1ccccc1` , recorded TGI = 9.2
